# protocolNotes: Pharmacokinetic study in rats (plasma, LC-MS/MS)
# Assay type: in vivo, SD rats
# conditionContext: male, SD, rat, plasma, po, intragastric administration 30 mg/kg, read-out: half-life period (converted)
recordedMetric: half-life (h)
Quick reminder: number only, in h, skip the unit.

Item under review: C[C@]12CC[C@H](O)CC1=CC[C@@H]1[C@@H]2CC[C@]2(C)C(c3cccnc3)=CC[C@@H]12 [AA, Abiraterone] . Reported half-life? 8.46
